In this section we review reported pIC50 values for a set of compounds.
Biological target: hERG ion channel (Homo sapiens)
Construct: expressed in transfected cells; host or cells: HEK-293, stably transfected
Sequence (Q12809 whole entry): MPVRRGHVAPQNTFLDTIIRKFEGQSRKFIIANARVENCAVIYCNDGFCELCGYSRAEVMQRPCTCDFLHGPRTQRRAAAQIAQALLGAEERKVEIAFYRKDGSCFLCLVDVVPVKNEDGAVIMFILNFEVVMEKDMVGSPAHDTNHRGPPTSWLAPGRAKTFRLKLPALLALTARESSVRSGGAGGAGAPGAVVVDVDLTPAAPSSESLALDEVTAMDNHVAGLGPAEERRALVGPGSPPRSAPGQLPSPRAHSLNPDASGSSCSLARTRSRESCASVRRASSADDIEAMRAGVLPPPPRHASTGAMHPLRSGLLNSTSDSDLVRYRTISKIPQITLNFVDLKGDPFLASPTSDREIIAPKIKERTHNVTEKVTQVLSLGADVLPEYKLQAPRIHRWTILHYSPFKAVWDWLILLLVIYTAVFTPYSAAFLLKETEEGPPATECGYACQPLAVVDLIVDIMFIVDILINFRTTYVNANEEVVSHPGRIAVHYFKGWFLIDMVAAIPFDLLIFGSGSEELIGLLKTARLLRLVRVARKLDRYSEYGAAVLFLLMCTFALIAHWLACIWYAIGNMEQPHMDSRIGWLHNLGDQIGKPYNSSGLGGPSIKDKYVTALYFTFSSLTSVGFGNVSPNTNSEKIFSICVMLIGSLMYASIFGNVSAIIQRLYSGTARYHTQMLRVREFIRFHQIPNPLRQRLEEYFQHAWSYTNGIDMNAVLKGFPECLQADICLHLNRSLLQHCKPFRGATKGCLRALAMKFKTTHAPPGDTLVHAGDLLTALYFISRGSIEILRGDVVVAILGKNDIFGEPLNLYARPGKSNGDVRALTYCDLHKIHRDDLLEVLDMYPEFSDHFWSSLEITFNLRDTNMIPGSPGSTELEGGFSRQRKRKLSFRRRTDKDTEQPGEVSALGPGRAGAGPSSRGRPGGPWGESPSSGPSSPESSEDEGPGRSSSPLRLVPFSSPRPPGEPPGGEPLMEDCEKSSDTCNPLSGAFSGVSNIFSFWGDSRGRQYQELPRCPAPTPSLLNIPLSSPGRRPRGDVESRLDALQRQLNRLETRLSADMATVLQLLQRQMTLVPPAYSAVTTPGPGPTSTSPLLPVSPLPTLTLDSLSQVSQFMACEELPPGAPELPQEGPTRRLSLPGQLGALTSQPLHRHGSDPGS
Assay: hERG tail current, patch-clamp in HEK-293 cells stably transfected with hERG
Type: cell-based
Please report pIC50 as the negative decimal logarithm of the molar concentration, giving only the number.

CC(C(=O)O)c1ccc(CN2CCC(COC(=O)c3c4n(c5ccccc35)CCCO4)CC2)cc1 (centres unmarked) [Compound 27] ... 4.60

Next compound, please.
According to the records, this compound COC(=O)c1ccccc1-c1ccc(CN2CCC(COC(=O)c3c4n(c5ccccc35)CCCO4)CC2)cc1 [Compound 7] displays pIC50 of 6.88

Data credit: patent US20120094989A1
